Where do these numbers come from? They come from patent US4520022A.

Tested on: Gp Ia: S. aureus Smith A9537, A9497, Terajima, A9534, A9601
setup-conditions: Staphylococcus aureus, read-out: Minimum Inhibitory Concentration Gp Ia, Mueller-Hinton agar; run 1; average of five organisms
Provide the recorded MIC for the entries that follow.
Kindly answer with a numeric value in µg/mL, unit omitted.

Would you mind telling me what MIC value was observed for `N[C@@H](C(=O)N[C@@H]1C(=O)N2C(C(=O)O)=C(C=CCSc3cnn[nH]3)CS[C@H]12)c1ccc(O)cc1` ? 0.61

Would you mind telling me what MIC value was observed for `C=CC1=C(C(=O)O)N2C(=O)[C@@H](NC(=O)[C@H](N)c3ccc(O)cc3)[C@H]2SC1` ? 0.4

Would you mind telling me what MIC value was observed for `CC1=C(C(=O)O)N2C(=O)[C@@H](NC(=O)[C@H](N)c3ccccc3)[C@H]2SC1` ? 1.2

Would you mind telling me what MIC value was observed for `C/C=C/C1=C(C(=O)O)N2C(=O)[C@@H](NC(=O)[C@H](N)c3ccc(O)cc3)[C@H]2SC1` ? 0.26

Would you mind telling me what MIC value was observed for `COC/C=C\C1=C(C(=O)O)N2C(=O)[C@@H](NC(=O)[C@H](N)c3ccc(O)cc3)[C@H]2SC1` ? 0.53

Would you mind telling me what MIC value was observed for `N[C@@H](C(=O)N[C@@H]1C(=O)N2C(C(=O)O)=C(/C=C\Cc3ccccc3)CS[C@H]12)c1ccc(O)cc1` ? 0.2
